koff reference
Molecular target: T1, Avi-Tag Fc with human IL-2R beta and IL-2R gamma attached (Acrobiosystems ACRB-ILG-H82F3-25UG) (human, UniProt P14784 27-239; P31785 23-262)
T1 construct: bought heterodimer; also called CD122 CD132; CD122/CD132 complex
T1 sequence (looked up) 1: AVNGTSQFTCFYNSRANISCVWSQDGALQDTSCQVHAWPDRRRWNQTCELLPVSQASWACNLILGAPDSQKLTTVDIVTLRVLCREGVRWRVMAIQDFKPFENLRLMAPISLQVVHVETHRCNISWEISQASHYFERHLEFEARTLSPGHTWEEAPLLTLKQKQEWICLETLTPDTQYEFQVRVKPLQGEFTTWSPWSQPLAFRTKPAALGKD
T1 sequence (looked up) 2: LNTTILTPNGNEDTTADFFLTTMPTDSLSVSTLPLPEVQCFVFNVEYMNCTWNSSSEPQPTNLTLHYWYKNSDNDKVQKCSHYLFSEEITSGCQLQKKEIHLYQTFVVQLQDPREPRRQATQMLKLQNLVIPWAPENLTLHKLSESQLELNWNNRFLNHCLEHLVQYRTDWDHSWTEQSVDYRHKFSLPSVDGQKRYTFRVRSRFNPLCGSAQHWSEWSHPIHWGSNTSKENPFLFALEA
Assay: BLI (Octet), receptor on SAX2 sensor, MMP2-treated IL-2 as analyte
Bridges are numbered along the chain shown (N, C = ends). [ ]: non-standard residue; d: D form. Ygp = O-(8x polyethylene glycol-amino)-tyrosine; Yn3 = O-(9x polyethylene glycol-azido)-tyrosine; hSer = N[C@@H](CCO)C(=O)O; Nle = CCCC[C@H](N)C(=O)O
Reported Metric: koff

Binder | Result
CMP-168, MMP2 cleaved (ligand, disulfide 58-105 (inferred); not fully specified (residues 9, 23); also: cleaved by MMP2, bridge opened, remnants on Lys9 and Glu23 not defined) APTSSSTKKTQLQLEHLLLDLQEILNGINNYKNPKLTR[Nle]L[hSer][Yn3]KF[Ygp][Nle]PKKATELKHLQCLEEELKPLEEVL[hSer]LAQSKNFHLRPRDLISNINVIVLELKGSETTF[hSer]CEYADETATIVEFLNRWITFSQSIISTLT | 0.00164 s⁻¹
CMP-167, MMP2 cleaved (ligand, not fully specified; as CMP-167 but cleavable peptide cut by MMP2 (macrocycle opened); cut site not given) APTSSSTKKTQLQLEHLLLDLQKILNGINNYKNPKLTRXLXYKFYXPKKATELKHLQCLEEELKPLEEVLXLAQSKNFHLRPRDLISNINVIVLELKGSETTFXCEYADETATIVEFLNRWITFSQSIISTLT | 0.000923 s⁻¹
CMP-166, MMP2 cleaved (ligand, not fully specified; as CMP-166 but cleavable peptide cut by MMP2 (macrocycle opened); cut site not given) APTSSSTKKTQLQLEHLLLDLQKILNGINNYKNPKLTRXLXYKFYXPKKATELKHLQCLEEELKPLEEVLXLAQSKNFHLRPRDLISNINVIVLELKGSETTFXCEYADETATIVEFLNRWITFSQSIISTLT | 0.000684 s⁻¹
CMP-165, MMP2 cleaved (ligand, disulfide 58-105 (inferred); not fully specified (residue 23, N-terminus); also: MMP2 cleaved, ring opened, cut site not given here, peptide remnants on N-terminus (via glutaryl) and on Lys23 side chain) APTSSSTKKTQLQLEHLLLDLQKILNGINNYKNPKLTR[Nle]L[hSer][Yn3]KF[Ygp][Nle]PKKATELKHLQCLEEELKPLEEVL[hSer]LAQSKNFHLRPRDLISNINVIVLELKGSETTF[hSer]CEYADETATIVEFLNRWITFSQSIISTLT | 0.00114 s⁻¹

These data points were gathered from patent US20240417436A1.
